# experimental target: TRAF2 and NCK-interacting protein kinase (Homo sapiens, UniProt Q9UKE5)
# Sequence (Q9UKE5 whole entry, the tested form may be a part): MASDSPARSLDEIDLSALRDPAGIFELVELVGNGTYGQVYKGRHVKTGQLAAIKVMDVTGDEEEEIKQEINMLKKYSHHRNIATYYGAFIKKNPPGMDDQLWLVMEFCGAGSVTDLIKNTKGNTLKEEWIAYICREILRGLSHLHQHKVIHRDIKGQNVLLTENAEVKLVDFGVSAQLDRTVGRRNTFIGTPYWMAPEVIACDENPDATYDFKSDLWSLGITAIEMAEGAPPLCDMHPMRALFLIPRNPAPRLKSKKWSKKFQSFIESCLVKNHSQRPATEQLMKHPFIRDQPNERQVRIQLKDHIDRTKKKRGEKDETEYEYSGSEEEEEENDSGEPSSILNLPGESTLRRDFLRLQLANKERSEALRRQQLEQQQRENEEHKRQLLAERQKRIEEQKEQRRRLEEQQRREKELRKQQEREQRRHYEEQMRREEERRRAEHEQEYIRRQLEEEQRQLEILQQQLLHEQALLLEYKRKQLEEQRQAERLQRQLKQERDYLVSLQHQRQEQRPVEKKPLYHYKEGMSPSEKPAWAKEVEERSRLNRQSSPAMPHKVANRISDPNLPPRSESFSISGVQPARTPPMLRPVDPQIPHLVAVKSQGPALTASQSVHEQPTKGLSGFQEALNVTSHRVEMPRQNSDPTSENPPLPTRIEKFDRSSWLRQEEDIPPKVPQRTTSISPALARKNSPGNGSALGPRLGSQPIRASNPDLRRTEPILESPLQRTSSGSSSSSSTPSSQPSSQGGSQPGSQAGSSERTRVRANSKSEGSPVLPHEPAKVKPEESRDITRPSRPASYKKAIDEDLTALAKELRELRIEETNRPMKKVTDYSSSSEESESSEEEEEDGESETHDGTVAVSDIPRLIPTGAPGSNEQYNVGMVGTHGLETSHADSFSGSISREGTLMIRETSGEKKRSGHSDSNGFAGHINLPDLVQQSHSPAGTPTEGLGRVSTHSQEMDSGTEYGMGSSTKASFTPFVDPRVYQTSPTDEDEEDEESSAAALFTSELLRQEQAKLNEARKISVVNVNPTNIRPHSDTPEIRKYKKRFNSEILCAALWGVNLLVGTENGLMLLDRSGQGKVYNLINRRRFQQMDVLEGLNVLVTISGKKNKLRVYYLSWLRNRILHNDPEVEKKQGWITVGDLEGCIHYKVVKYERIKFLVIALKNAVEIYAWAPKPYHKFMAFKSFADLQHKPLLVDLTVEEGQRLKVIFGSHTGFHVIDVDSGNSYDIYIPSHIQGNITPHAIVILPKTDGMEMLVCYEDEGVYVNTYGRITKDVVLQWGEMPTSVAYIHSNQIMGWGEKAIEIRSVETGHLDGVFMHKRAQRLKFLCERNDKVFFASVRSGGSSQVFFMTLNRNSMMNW
# measurement notes: Inhibition of human recombinant TNIK (1 to 367 residues) using RLGRDKYKTLRQIRQ as substrate incubated for 40 mins in presence of Mg/ATP mix by [gamma p33]-ATP based radiometric scintillation counting method
pIC50: −log10 of the molar value.
assay readout: pIC50

# annotated cases, reported pIC50 shown
1) O=c1oc2cc(-c3c[nH]c4ncccc34)ccc2n1Cc1ccc(F)cc1 6.64
2) COc1cc(Cn2c(=O)oc3cc(-c4cnc5[nH]ccc5c4)ccc32)ccc1F 6.14
3) O=c1oc2cc(-c3ccnc4[nH]ncc34)ccc2n1Cc1ccc(F)cc1 6.04
4) O=c1oc2cc(-c3ccc4ncnn4c3)ccc2n1Cc1ccc(F)cc1 5.61
5) O=c1oc2cc(-c3cnc4[nH]ccc4c3)ccc2n1Cc1cccc(OC(F)F)c1 5.76
6) O=c1oc2cc(-c3ccn4ncnc4c3)ccc2n1Cc1ccc(F)cc1 5.35
7) Nc1ccc(-c2ccc3c(c2)oc(=O)n3Cc2ccc(F)cc2)cn1 6.63
8) N#Cc1cc(-c2ccc3c(c2)oc(=O)n3Cc2ccc(F)cc2)cnc1N 6.81
9) O=c1oc2cc(-c3cnc4[nH]ccc4n3)ccc2n1Cc1ccc(F)cc1 5.39
10) COc1cc(-c2ccc3c(c2)oc(=O)n3Cc2ccc(F)cc2)cnc1N 6.21

A: COc1cccc(Cn2c(=O)oc3cc(-c4cnc5[nH]ccc5n4)ccc32)c1
B: Cc1cccc(Cn2c(=O)oc3cc(-c4cnc5[nH]ccc5c4)ccc32)c1
Could you tell me which of these two has the smaller pIC50 figure? First: A Second: B // return label of chosen record
A

I: O=c1oc2cc(-c3cnc4[nH]ccc4c3)ccc2n1Cc1cccc(C(F)(F)F)c1
II: O=c1oc2cc(-c3cnc4[nH]ccc4c3)ccc2n1Cc1cccc(F)c1
Of the two listed items, which has the higher pIC50? First: I Second: II // return label of chosen record
II

----------
# experimental target: TRAF2 and NCK-interacting protein kinase (Homo sapiens, UniProt Q9UKE5)
# measurement notes: Inhibition of human recombinant TNIK (1 to 367 residues) using RLGRDKYKTLRQIRQ as substrate incubated for 40 mins in presence of Mg/ATP mix by [gamma p33]-ATP based radiometric scintillation counting method
pIC50: −log10 of the molar value.
assay readout: pIC50

A: COc1cccc(Cn2c(=O)oc3cc(-c4cnc5[nH]ccc5c4)ccc32)c1
B: O=c1oc2cc(-c3cnc4[nH]ccc4c3)ccc2n1Cc1ccccc1F
C: COc1cccc(Cn2c(=O)oc3cc(-c4ccnc5[nH]ccc45)ccc32)c1
D: O=c1oc2cc(-c3cnc4[nH]ccc4c3)ccc2n1Cc1cccc(OC(F)(F)F)c1
Order the records, beginning with the lowest pIC50 and ending with the highest. Please respond with the labels ordered as the question requires.
C, B, D, A
(C: 5.05, B: 5.98, D: 6.54, A: 7.30)

P: Nc1ncnn2c(-c3ccc4c(c3)oc(=O)n4Cc3ccc(F)cc3)ccc12
Q: COc1cccc(Cn2c(=O)oc3cc(-c4ccc5[nH]ccc5c4)ccc32)c1
Of the two listed items, which has the higher pIC50? First: P Second: Q // return label of chosen record
P
(P: 6.18, Q: 5.93)

----------
Parameter IC50: see the listing below.
# Test system: HCT-116
# measurement notes: Antiproliferative activity against human HCT-116 cells assessed as inhibition of cell proliferation incubated for 72 hrs by MTT assay
# Type: functional, cell-based
# experimental parameters: HCT-116, 72 h

1. O=c1oc2cc(-c3ccnc4[nH]ncc34)ccc2n1Cc1ccc(F)cc1 > 100 µM

Value of measured IC50 for the entry COc1cccc(Cn2c(=O)oc3cc(-c4ccc5c(c4)CCN5)ccc32)c1 : > 100 µM

Value of measured IC50 for the entry COc1cc(Cn2c(=O)oc3cc(-c4cnc5[nH]ccc5c4)ccc32)ccc1F : 8.05 µM

----------
# experimental target: TRAF2 and NCK-interacting protein kinase (Homo sapiens)
# measurement notes: Inhibition of human recombinant TNIK (1 to 367 residues) using RLGRDKYKTLRQIRQ as substrate incubated for 40 mins in presence of Mg/ATP mix by [gamma p33]-ATP based radiometric scintillation counting method
assay readout: IC50 (µM)

A: COc1cccc(Cn2c(=O)oc3cc(-c4ccc(N)nc4)ccc32)c1
B: O=c1oc2cc(-c3cnc4[nH]ccc4c3)ccc2n1Cc1ccc(F)cc1
Could you tell me which of these two has the smaller IC50 figure? First: A Second: B // return label of chosen record
B
